assay: Pharmacokinetic evaluation in mice; type: in vivo, CD-1 mice (male); details: male, mouse, plasma, iv, 2 mg/kg; CD-1 mice, injection administration 2 mpk; read-out: Clearance Rate
endpoint: clearance (mL/min/kg)

a: Cc1cc(Nc2cc(C)nc(C3CCC4(CC3)OCCN(C(C)c3ccc(-n5cc(F)cn5)nc3)C4=O)n2)[nH]n1 (single isomer, unassigned)
b: Cc1cc(Nc2cc(C)[nH]n2)nc(N2CCC3(CC2)OCCN(C(C)c2ccc(-n4cc(F)cn4)nc2)C3=O)n1 (centres unmarked)
Dear colleague, could you let me know whether a or b has the lower recorded clearance? Thanks. Your answer should be the label of the entry you select.
a

---

target: V804L mutant RET (Homo sapiens, UniProt P07949, V804L); experiment: 33P isotope-labeled kinase activity test, V804L mutant RET; settings: 33P-ATP at Km concentration
Sequence (P07949 29-1114 V804L): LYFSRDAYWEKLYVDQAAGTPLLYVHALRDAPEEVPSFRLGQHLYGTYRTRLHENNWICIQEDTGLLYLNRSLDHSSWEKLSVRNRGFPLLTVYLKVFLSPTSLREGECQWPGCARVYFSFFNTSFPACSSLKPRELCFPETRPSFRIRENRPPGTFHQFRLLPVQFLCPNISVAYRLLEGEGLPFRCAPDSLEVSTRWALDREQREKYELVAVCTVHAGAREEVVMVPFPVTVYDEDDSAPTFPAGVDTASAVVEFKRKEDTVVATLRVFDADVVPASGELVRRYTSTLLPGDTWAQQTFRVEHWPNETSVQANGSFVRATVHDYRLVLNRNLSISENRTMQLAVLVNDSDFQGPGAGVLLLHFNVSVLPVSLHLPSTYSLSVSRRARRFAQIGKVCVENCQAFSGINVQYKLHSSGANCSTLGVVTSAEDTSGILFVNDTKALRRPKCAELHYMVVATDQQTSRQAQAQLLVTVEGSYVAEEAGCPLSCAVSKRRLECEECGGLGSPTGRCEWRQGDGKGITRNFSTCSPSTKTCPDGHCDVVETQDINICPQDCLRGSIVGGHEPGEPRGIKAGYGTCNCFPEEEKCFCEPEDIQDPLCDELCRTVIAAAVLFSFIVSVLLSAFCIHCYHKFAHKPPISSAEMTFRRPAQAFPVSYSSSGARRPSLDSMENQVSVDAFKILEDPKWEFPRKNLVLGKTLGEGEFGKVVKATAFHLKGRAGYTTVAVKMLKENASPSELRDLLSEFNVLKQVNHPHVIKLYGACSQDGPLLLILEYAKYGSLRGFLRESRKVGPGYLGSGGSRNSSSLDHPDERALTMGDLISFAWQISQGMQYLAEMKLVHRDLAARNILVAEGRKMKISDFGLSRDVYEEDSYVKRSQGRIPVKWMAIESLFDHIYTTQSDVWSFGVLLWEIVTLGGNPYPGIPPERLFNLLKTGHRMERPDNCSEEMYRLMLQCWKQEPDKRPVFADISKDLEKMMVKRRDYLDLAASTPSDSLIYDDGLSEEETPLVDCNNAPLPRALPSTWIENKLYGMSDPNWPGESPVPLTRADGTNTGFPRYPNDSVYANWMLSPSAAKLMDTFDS
endpoint: pIC50
Formally, pIC50 is defined as -log10 of the concentration c, with c in mol/L.

Any idea what pIC50 came out for Cc1cc(Nc2cc(C)[nH]n2)nc(N2CCC3(CC2)OCCN(C(C)c2ccc(-n4cc(F)cn4)nc2)C3=O)n1 (stereo not shown) on V804L mutant RET (Homo sapiens, UniProt P07949, V804L)?
8.91

---

experiment: Pharmacokinetic evaluation in mice; format: in vivo, CD-1 mice (male); conditions: male, mouse, plasma, iv, 2 mg/kg; CD-1 mice, injection administration 2 mpk; read-out: Half-life T1/2 (converted)
endpoint: half-life (h)

Can you share its half-life? I mean this molecule: Cc1cc(Nc2cc(C)[nH]n2)nc(N2CCC3(CC2)OCCN(C(C)c2ccc(-n4cc(F)cn4)nc2)C3=O)n1 (centres unmarked)
2.56

Can you handle Cc1cc(Nc2cc(C)nc(C3CCC4(CC3)OCCN(C(C)c3ccc(-n5cc(F)cn5)nc3)C4=O)n2)[nH]n1 (single isomer, unassigned) next?
2.53

---

experiment: Pharmacokinetic evaluation in mice; assay type: in vivo, CD-1 mice (male); conditions: male, mouse, plasma, iv, 2 mg/kg; CD-1 mice, injection administration 2 mpk; read-out: Integrated Concentration AUC
endpoint: AUC (µM·h)

I: Cc1cc(Nc2cc(C)[nH]n2)nc(N2CCC3(CC2)OCCN(C(C)c2ccc(-n4cc(F)cn4)nc2)C3=O)n1 (centres unmarked)
II: Cc1cc(Nc2cc(C)nc(C3CCC4(CC3)OCCN(C(C)c3ccc(-n5cc(F)cn5)nc3)C4=O)n2)[nH]n1 (single isomer, unassigned)
Consider I and II . Which of these has its AUC at a higher number? Your answer should be the label of the entry you select.
II
